Source of measurements: ChEMBL document CHEMBL5360532

Test system: Pseudomonas aeruginosa
MEASUREMENT_DESCRIPTION: Antibacterial activity against Pseudomonas aeruginosa assessed as bacterial growth inhibition by agar cup diffusion assay
Type: functional
VALUE_TYPE: log10 of MIC (log10 of the value in µg/mL)

1. O=C(O)c1cn(C2CC2)c2cc(N3CCNCC3)c(F)cc2c1=O: 0.94
2. O=C(CN1CCN(c2cc3c(cc2F)c(=O)c(C(=O)O)cn3C2CC2)CC1)Nc1nnc(-c2ccccc2)s1: 0.87
3. O=C(CN1CCN(c2cc3c(cc2F)c(=O)c(C(=O)O)cn3C2CC2)CC1)Nc1nnc(-c2ccc(Cl)cc2)s1: 0.96
4. Nc1ccc(-c2nnc(-c3cn(C4CC4)c4cc(C(=O)c5ncc[nH]5)c(F)cc4c3=O)o2)c(O)c1: -0.70
5. Nc1ccc(-c2nnc(-c3cn(C4CC4)c4cc(N5CCNCC5)c(F)cc4c3=O)o2)c(O)c1: -0.52

* * *

System: Escherichia coli
MEASUREMENT_DESCRIPTION: Antibacterial activity against Escherichia coli assessed as bacterial growth inhibition by agar cup diffusion assay
Type: functional
Lab note: cut-off is 1 µg/mL. Strictly less in MIC is TRUE. Exactly 1 µg/mL or more is FALSE.

1) O=C(CN1CCN(c2cc3c(cc2F)c(=O)c(C(=O)O)cn3C2CC2)CC1)Nc1nnc(-c2ccc(Cl)cc2)s1: FALSE
2) O=C(CN1CCN(c2cc3c(cc2F)c(=O)c(C(=O)O)cn3C2CC2)CC1)Nc1nnc(-c2ccccc2)s1: FALSE
3) C=CCn1c(SCC(=O)N2CCN(c3cc4c(cc3F)c(=O)c(C(=O)O)cn4C3CC3)CC2)nnc1-c1ccccc1: FALSE
4) Nc1ccc(-c2nnc(-c3cn(C4CC4)c4cc(C(=O)c5ncc[nH]5)c(F)cc4c3=O)o2)c(O)c1: TRUE
5) Nc1ccc(-c2nnc(-c3cn(C4CC4)c4cc(N5CCNCC5)c(F)cc4c3=O)o2)c(O)c1: TRUE
6) O=C(O)c1cn(C2CC2)c2cc(N3CCNCC3)c(F)cc2c1=O: FALSE

* * *

Attribute: Ratio
Test system: Escherichia coli
MEASUREMENT_DESCRIPTION: Potency index, ratio of ciprofloxacin MIC to test compound MIC for antimicrobial activity against Escherichia coli assessed as bacterial growth inhibition by agar cup diffusion assay
Assay type: functional
VALUE_TYPE: Ratio

1. O=C(O)c1cn(C2CC2)c2cc(N3CCN(C(=O)CCSc4nnnn4-c4ccc(Br)cc4)CC3)c(F)cc2c1=O: 2
2. CCn1nnnc1SCCC(=O)N1CCN(c2cc3c(cc2F)c(=O)c(C(=O)O)cn3C2CC2)CC1: 2
3. COc1cc(-n2nnnc2SCCC(=O)N2CCN(c3cc4c(cc3F)c(=O)c(C(=O)O)cn4C3CC3)CC2)cc(OC)c1OC: 2
4. O=C(O)c1cn(C2CC2)c2cc(N3CCN(C(=O)CCSc4nnnn4-c4ccc(F)c(F)c4F)CC3)c(F)cc2c1=O: 2
5. O=C(CN1CCN(c2cc3c(cc2F)c(=O)c(C(=O)O)cn3C2CC2)CC1)Nc1nnc(-c2ccccc2)s1: 4.6
6. O=C(O)c1cn(C2CC2)c2cc(N3CCN(C(=O)CCSc4nnnn4Cc4ccccc4)CC3)c(F)cc2c1=O: 2
7. O=C(CN1CCN(c2cc3c(cc2F)c(=O)c(C(=O)O)cn3C2CC2)CC1)Nc1nnc(-c2ccc(Cl)cc2)s1: 4.6
8. O=C(O)c1cn(C2CC2)c2cc(N3CCN(C(=O)CCSc4nnnn4-c4ccccc4)CC3)c(F)cc2c1=O: 2
9. O=C(O)c1cn(C2CC2)c2cc(N3CCN(C(=O)CCSc4nnnn4-c4ccc(C(F)(F)F)cc4)CC3)c(F)cc2c1=O: 2

* * *

Attribute: MIC
System: Escherichia coli
MEASUREMENT_DESCRIPTION: Antibacterial activity against fluoroquinolone Escherichia coli assessed as bacterial growth inhibition by broth microdilution assay
Type: functional
VALUE_TYPE: MIC (µg/mL)

1. O=C(O)c1cn(C2CC2)c2cc(N3CCNCC3)c(F)cc2c1=O: 0.72
2. CCCCCCOc1ccc(C2C(Cl)C(=O)N2c2cc3[nH]cc(C(=O)O)c(=O)c3cc2F)cc1 (stereo not given): 0.02
3. COc1c(N2CCNC(C)C2)c(F)cc2c(=O)c(C(=O)O)cn(C3CC3)c12 (stereo not given): 0.66
4. CCCCCOc1ccc(C2C(Cl)C(=O)N2c2cc3[nH]cc(C(=O)O)c(=O)c3cc2F)cc1 (stereo not given): 0.02
5. C[C@H]1COc2c(N3CCN(C)CC3)c(F)cc3c(=O)c(C(=O)O)cn1c23 [LEVOFLOXACIN ANHYDROUS]: 0.47

* * *

Attribute: MIC
Tested on: Klebsiella pneumoniae
MEASUREMENT_DESCRIPTION: Antibacterial activity against Klebsiella pneumoniae assessed as bacterial growth inhibition by agar cup diffusion assay
Type: functional
VALUE_TYPE: MIC (µg/mL)

1) C=CCn1c(SCC(=O)N2CCN(c3cc4c(cc3F)c(=O)c(C(=O)O)cn4C3CC3)CC2)nnc1-c1ccccc1: 1.7
2) O=C(CN1CCN(c2cc3c(cc2F)c(=O)c(C(=O)O)cn3C2CC2)CC1)Nc1nnc(-c2ccccc2)s1: 1.12
3) O=C(O)c1cn(C2CC2)c2cc(N3CCNCC3)c(F)cc2c1=O [CIPROFLOXACIN]: 1.9
4) O=C(CN1CCN(c2cc3c(cc2F)c(=O)c(C(=O)O)cn3C2CC2)CC1)Nc1nnc(-c2ccc(Cl)cc2)s1: 1.12

* * *

Test system: Staphylococcus aureus
MEASUREMENT_DESCRIPTION: Antibacterial activity against clinical isolate methicillin resistant Staphylococcus aureus assessed as bacterial growth inhibition by microdilution assay
Format: functional
Attribute: MIC
VALUE_TYPE: MIC

1) COc1ccc(S(=O)(=O)N2CCC[C@@H]3CN(c4c(F)cc5c(=O)c(C(=O)O)cn(C6CC6)c5c4OC)C[C@@H]32)cc1: < 2.64 µg/mL
2) COc1c(N2C[C@H]3CCCN(S(=O)(=O)c4ccc(F)cc4)[C@H]3C2)c(F)cc2c(=O)c(C(=O)O)cn(C3CC3)c12: < 2.64 µg/mL
3) COc1c(N2C[C@H]3CCCN(S(=O)(=O)c4ccc(Cl)cc4)[C@H]3C2)c(F)cc2c(=O)c(C(=O)O)cn(C3CC3)c12: < 2.64 µg/mL
4) COc1c(N2C[C@H]3CCCN(S(=O)(=O)c4ccccc4)[C@H]3C2)c(F)cc2c(=O)c(C(=O)O)cn(C3CC3)c12: < 2.64 µg/mL

* * *

Attribute: MIC
System: Enterococcus faecalis
MEASUREMENT_DESCRIPTION: Antibacterial activity against Enterococcus faecalis assessed as bacterial growth inhibition by broth microdilution assay
Format: functional
VALUE_TYPE: MIC (µg/mL)

1. CCCCCCOc1ccc(C2C(Cl)C(=O)N2c2cc3[nH]cc(C(=O)O)c(=O)c3cc2F)cc1 (stereo not given): 0.02
2. O=C(O)c1cn(C2CC2)c2cc(N3CCNCC3)c(F)cc2c1=O: 0.72
3. C[C@H]1COc2c(N3CCN(C)CC3)c(F)cc3c(=O)c(C(=O)O)cn1c23 [LEVOFLOXACIN ANHYDROUS]: 0.72
4. CCCCCOc1ccc(C2C(Cl)C(=O)N2c2cc3[nH]cc(C(=O)O)c(=O)c3cc2F)cc1 (stereo not given): 0.02
5. COc1c(N2CCNC(C)C2)c(F)cc2c(=O)c(C(=O)O)cn(C3CC3)c12 (stereo not given): 0.47

* * *

Test system: Staphylococcus aureus
MEASUREMENT_DESCRIPTION: Potency index, ratio of ciprofloxacin MIC to test compound MIC for antimicrobial activity against Staphylococcus aureus assessed as bacterial growth inhibition by agar cup diffusion assay
Format: functional
VALUE_TYPE: Ratio

1. O=C(O)c1cn(C2CC2)c2cc(N3CCN(Cc4nnc(-c5cccc(O)c5)o4)CC3)c(F)cc2c1=O: >=4
2. O=C(O)c1cn(C2CC2)c2cc(N3CCN(Cc4nnc(-c5ccc(O)cc5)o4)CC3)c(F)cc2c1=O: >=4
3. O=C(CSc1nnc(N2CCN(c3cc4c(cc3F)c(=O)c(C(=O)O)cn4C3CC3)CC2)s1)c1ccc([N+](=O)[O-])cc1: 2
4. O=C(CN1CCN(c2cc3c(cc2F)c(=O)c(C(=O)O)cn3C2CC2)CC1)Nc1nnc(-c2ccc(Cl)cc2)s1: 4.6
5. O=C(CN1CCN(c2cc3c(cc2F)c(=O)c(C(=O)O)cn3C2CC2)CC1)Nc1nnc(-c2ccccc2)s1: 4.6
